B1: TPR t1 (parent)
chain: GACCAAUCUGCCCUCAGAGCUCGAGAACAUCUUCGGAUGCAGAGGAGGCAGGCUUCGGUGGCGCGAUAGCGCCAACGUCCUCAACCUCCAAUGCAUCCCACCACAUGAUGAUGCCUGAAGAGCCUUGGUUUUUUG

Variants of: B1
Experiment: polymerase ribozyme fitness, log enrichment relative to wild type (log ratio); higher = more active; in vitro selection for triplet polymerase activity
MEASUREMENT_NAME: polymerase ribozyme fitness (log ratio)

VARIANT_NOTATION: A29G A95G
MEASUREMENT_NAME: polymerase ribozyme fitness (log ratio)
VALUE_OBSERVED: -1.84
//
VARIANT_NOTATION: U9A C53U C72U U92A G127A
MEASUREMENT_NAME: polymerase ribozyme fitness (log ratio)
VALUE_OBSERVED: -3.85
//
VARIANT_NOTATION: A111U U125A
MEASUREMENT_NAME: polymerase ribozyme fitness (log ratio)
VALUE_OBSERVED: -3.84
//
VARIANT_NOTATION: U30A A111U
MEASUREMENT_NAME: polymerase ribozyme fitness (log ratio)
VALUE_OBSERVED: -4.14
//
VARIANT_NOTATION: A37U C104U U116C
MEASUREMENT_NAME: polymerase ribozyme fitness (log ratio)
VALUE_OBSERVED: -0.911
//
VARIANT_NOTATION: C15G C56U A83U C115G C123A
MEASUREMENT_NAME: polymerase ribozyme fitness (log ratio)
VALUE_OBSERVED: -4.36
//
VARIANT_NOTATION: A50G C62A C99U
MEASUREMENT_NAME: polymerase ribozyme fitness (log ratio)
VALUE_OBSERVED: -6.11
//
VARIANT_NOTATION: C34G G61A G113U G122U
MEASUREMENT_NAME: polymerase ribozyme fitness (log ratio)
VALUE_OBSERVED: -7.08
//
VARIANT_NOTATION: C20G C40U C124U U126C
MEASUREMENT_NAME: polymerase ribozyme fitness (log ratio)
VALUE_OBSERVED: -4.35
//
VARIANT_NOTATION: G69U C104G U133G
MEASUREMENT_NAME: polymerase ribozyme fitness (log ratio)
VALUE_OBSERVED: -5.17
//
VARIANT_NOTATION: C15U C62A C86U A111C U129G
MEASUREMENT_NAME: polymerase ribozyme fitness (log ratio)
VALUE_OBSERVED: -4.97
//
VARIANT_NOTATION: C11A G42A C86U U96A
MEASUREMENT_NAME: polymerase ribozyme fitness (log ratio)
VALUE_OBSERVED: -4.6
//
VARIANT_NOTATION: A2C C89G
MEASUREMENT_NAME: polymerase ribozyme fitness (log ratio)
VALUE_OBSERVED: -3.68
//
VARIANT_NOTATION: C64U A118U
MEASUREMENT_NAME: polymerase ribozyme fitness (log ratio)
VALUE_OBSERVED: 0.459
//
VARIANT_NOTATION: U7A A16U C49U C124U
MEASUREMENT_NAME: polymerase ribozyme fitness (log ratio)
VALUE_OBSERVED: 1.1
//
VARIANT_NOTATION: C40G G57U
MEASUREMENT_NAME: polymerase ribozyme fitness (log ratio)
VALUE_OBSERVED: -1.36
//
VARIANT_NOTATION: G60U G93C C104A G113C
MEASUREMENT_NAME: polymerase ribozyme fitness (log ratio)
VALUE_OBSERVED: -4.47
//
VARIANT_NOTATION: G63C G93U
MEASUREMENT_NAME: polymerase ribozyme fitness (log ratio)
VALUE_OBSERVED: -1.7
//
VARIANT_NOTATION: G45A G58A A111C A118C
MEASUREMENT_NAME: polymerase ribozyme fitness (log ratio)
VALUE_OBSERVED: -0.455
//
VARIANT_NOTATION: C22U A74C C79U A121U
MEASUREMENT_NAME: polymerase ribozyme fitness (log ratio)
VALUE_OBSERVED: -2.29
//
VARIANT_NOTATION: A111U C123U G127C
MEASUREMENT_NAME: polymerase ribozyme fitness (log ratio)
VALUE_OBSERVED: -4.76
//
VARIANT_NOTATION: C56G A95G
MEASUREMENT_NAME: polymerase ribozyme fitness (log ratio)
VALUE_OBSERVED: -1.22
//
VARIANT_NOTATION: C13G C72A U78G
MEASUREMENT_NAME: polymerase ribozyme fitness (log ratio)
VALUE_OBSERVED: -2.9
//
VARIANT_NOTATION: G48A C56U C82U
MEASUREMENT_NAME: polymerase ribozyme fitness (log ratio)
VALUE_OBSERVED: -0.312
//
VARIANT_NOTATION: C3G C12G C53A G61U C114G
MEASUREMENT_NAME: polymerase ribozyme fitness (log ratio)
VALUE_OBSERVED: -5.41
//
VARIANT_NOTATION: G44A C101A U109A
MEASUREMENT_NAME: polymerase ribozyme fitness (log ratio)
VALUE_OBSERVED: -5.41
//
VARIANT_NOTATION: C70U U92G A118G
MEASUREMENT_NAME: polymerase ribozyme fitness (log ratio)
VALUE_OBSERVED: -3.55
//
VARIANT_NOTATION: A50U U106A
MEASUREMENT_NAME: polymerase ribozyme fitness (log ratio)
VALUE_OBSERVED: -0.951
//
VARIANT_NOTATION: U9G A27U G39U A46U
MEASUREMENT_NAME: polymerase ribozyme fitness (log ratio)
VALUE_OBSERVED: -4
//
VARIANT_NOTATION: C11A A75U C79U C85A
MEASUREMENT_NAME: polymerase ribozyme fitness (log ratio)
VALUE_OBSERVED: -2.71
//
VARIANT_NOTATION: C49G G57U G63A A119G U133G
MEASUREMENT_NAME: polymerase ribozyme fitness (log ratio)
VALUE_OBSERVED: -0.878
//
VARIANT_NOTATION: G47U G52A C73A C86A
MEASUREMENT_NAME: polymerase ribozyme fitness (log ratio)
VALUE_OBSERVED: -0.962
//
VARIANT_NOTATION: A46G U55G U87C
MEASUREMENT_NAME: polymerase ribozyme fitness (log ratio)
VALUE_OBSERVED: -0.104
//
VARIANT_NOTATION: C3A C56G G61A U81A U131C
MEASUREMENT_NAME: polymerase ribozyme fitness (log ratio)
VALUE_OBSERVED: -4.05
//
VARIANT_NOTATION: G17U U21G G47C C115A
MEASUREMENT_NAME: polymerase ribozyme fitness (log ratio)
VALUE_OBSERVED: -1.81
//
VARIANT_NOTATION: A29U G48A G63C A111C
MEASUREMENT_NAME: polymerase ribozyme fitness (log ratio)
VALUE_OBSERVED: -2.36
//
VARIANT_NOTATION: C3U G113U
MEASUREMENT_NAME: polymerase ribozyme fitness (log ratio)
VALUE_OBSERVED: -2.47
//
VARIANT_NOTATION: C8U G71A C115U
MEASUREMENT_NAME: polymerase ribozyme fitness (log ratio)
VALUE_OBSERVED: -1.94
//
VARIANT_NOTATION: G45U G120C
MEASUREMENT_NAME: polymerase ribozyme fitness (log ratio)
VALUE_OBSERVED: -0.784
//
VARIANT_NOTATION: C11G C97A C102U
MEASUREMENT_NAME: polymerase ribozyme fitness (log ratio)
VALUE_OBSERVED: -4.77
//
VARIANT_NOTATION: C3U G19A C53G U87A C124A
MEASUREMENT_NAME: polymerase ribozyme fitness (log ratio)
VALUE_OBSERVED: -1.53
//
VARIANT_NOTATION: G42C C73G C79U A95G U129C
MEASUREMENT_NAME: polymerase ribozyme fitness (log ratio)
VALUE_OBSERVED: -3.37
//
VARIANT_NOTATION: C70A C80G C82G
MEASUREMENT_NAME: polymerase ribozyme fitness (log ratio)
VALUE_OBSERVED: -7.42
//
VARIANT_NOTATION: C80U C114G
MEASUREMENT_NAME: polymerase ribozyme fitness (log ratio)
VALUE_OBSERVED: -3.48
//
VARIANT_NOTATION: C12U A16G C20U C64A A84U U112G G113U
MEASUREMENT_NAME: polymerase ribozyme fitness (log ratio)
VALUE_OBSERVED: -7.14
//
VARIANT_NOTATION: U87C C99A C101U U116C
MEASUREMENT_NAME: polymerase ribozyme fitness (log ratio)
VALUE_OBSERVED: -6.81
//
VARIANT_NOTATION: U59G C97U
MEASUREMENT_NAME: polymerase ribozyme fitness (log ratio)
VALUE_OBSERVED: -1.6
//
VARIANT_NOTATION: C13U C28G C34G C49A C76A A100C U109A C123G
MEASUREMENT_NAME: polymerase ribozyme fitness (log ratio)
VALUE_OBSERVED: -6.13
//
VARIANT_NOTATION: C8U C49G
MEASUREMENT_NAME: polymerase ribozyme fitness (log ratio)
VALUE_OBSERVED: 0.889
//
VARIANT_NOTATION: A43C C115U
MEASUREMENT_NAME: polymerase ribozyme fitness (log ratio)
VALUE_OBSERVED: -3.33
//
VARIANT_NOTATION: A2U G120C G135A
MEASUREMENT_NAME: polymerase ribozyme fitness (log ratio)
VALUE_OBSERVED: 0.456
//
VARIANT_NOTATION: C13U G19A G77C U81C
MEASUREMENT_NAME: polymerase ribozyme fitness (log ratio)
VALUE_OBSERVED: -3.54
//
VARIANT_NOTATION: U59A G61U
MEASUREMENT_NAME: polymerase ribozyme fitness (log ratio)
VALUE_OBSERVED: -0.465
//
VARIANT_NOTATION: U7G G60U
MEASUREMENT_NAME: polymerase ribozyme fitness (log ratio)
VALUE_OBSERVED: -0.565
//
VARIANT_NOTATION: G42A C114U
MEASUREMENT_NAME: polymerase ribozyme fitness (log ratio)
VALUE_OBSERVED: -2.35
//
VARIANT_NOTATION: C8G C13U G47C
MEASUREMENT_NAME: polymerase ribozyme fitness (log ratio)
VALUE_OBSERVED: -0.248
//
VARIANT_NOTATION: C13A C53A
MEASUREMENT_NAME: polymerase ribozyme fitness (log ratio)
VALUE_OBSERVED: -0.605
//
VARIANT_NOTATION: A41G C73U U125C
MEASUREMENT_NAME: polymerase ribozyme fitness (log ratio)
VALUE_OBSERVED: -2.74
//
VARIANT_NOTATION: A84U G93U
MEASUREMENT_NAME: polymerase ribozyme fitness (log ratio)
VALUE_OBSERVED: -1.44
//
VARIANT_NOTATION: C11U C13U G44C C86G U116C U132C
MEASUREMENT_NAME: polymerase ribozyme fitness (log ratio)
VALUE_OBSERVED: -1.99
//
VARIANT_NOTATION: C4U C34A G52C C99A C102U U106C
MEASUREMENT_NAME: polymerase ribozyme fitness (log ratio)
VALUE_OBSERVED: -6
//
VARIANT_NOTATION: U7G C8U C70G
MEASUREMENT_NAME: polymerase ribozyme fitness (log ratio)
VALUE_OBSERVED: -1.52
//
VARIANT_NOTATION: C4A A119U
MEASUREMENT_NAME: polymerase ribozyme fitness (log ratio)
VALUE_OBSERVED: -1.66
//
VARIANT_NOTATION: G63C U78A G110U
MEASUREMENT_NAME: polymerase ribozyme fitness (log ratio)
VALUE_OBSERVED: -3.31
//
VARIANT_NOTATION: G44A G60U G117C
MEASUREMENT_NAME: polymerase ribozyme fitness (log ratio)
VALUE_OBSERVED: -5.36
//
VARIANT_NOTATION: A90G U112G
MEASUREMENT_NAME: polymerase ribozyme fitness (log ratio)
VALUE_OBSERVED: 1.3
//
VARIANT_NOTATION: C13U A16C G48C U59G G60U A100C A121C
MEASUREMENT_NAME: polymerase ribozyme fitness (log ratio)
VALUE_OBSERVED: -0.128
